Cited source for all entries: PubChem BioAssay AID1745844

# System: rodent lifetime carcinogenesis bioassay, tumor incidence TD50
# methodNotes: carcinogenic potency in animals, long-term in vivo studies, CPDB compilation (AID 1745844)
# conditionInfo: rat; strain Sprague-Dawley; males; i.p.; site: any site (literature study); lesion: several types; types named in the paper; dosed 32 weeks; study length 82 weeks

{"columns": ["structure", "TD50 (mg/kg/day)"],
 "data": [
  ["S=P(N1CC1)(N1CC1)N1CC1", 0.0332]
]}

====

# Test system: rodent lifetime carcinogenesis bioassay, tumor incidence TD50
# methodNotes: carcinogenic potency in animals, long-term in vivo studies, CPDB compilation (AID 1745844)
# conditionInfo: mouse; strain B6C3F1; females; inhaled; site: any site (literature study); lesion: several types; types named in the paper; dosed 104 weeks; study length 104 weeks
Measured TD50, listed per entry.
recordedMetric: TD50 (mg/kg/day)

{"columns": ["molecule", "unitString", "observedMeasurement"],
 "data": [
  ["CC(O)COC(C)(C)C (configuration not stated)", "mg/kg/day", 8120],
  ["C=CC(=C)Cl", "mg/kg/day", 3.92]
]}

====

# System: rodent lifetime carcinogenesis bioassay, tumor incidence TD50
# methodNotes: carcinogenic potency in animals, long-term in vivo studies, CPDB compilation (AID 1745844)
# conditionInfo: rat; strain Fischer 344; males; in feed; site: liver; lesion: hepatocellular adenoma + hepatocellular carcinoma + neoplastic nodule; dosed 13 weeks; study length 13 weeks
Each entry below lists one item and its recorded TD50 value.
recordedMetric: TD50 (mg/kg/day)

{"columns": ["structure", "recordedMetric", "unitString", "observedMeasurement"],
 "data": [
  ["Nc1ccc(N=Nc2ccc(-c3ccc(N=Nc4c(S(=O)(=O)O)cc5cc(S(=O)(=O)O)c(N=Nc6ccccc6)c(O)c5c4N)cc3)cc2)c(N)c1", "TD50", "mg/kg/day", 0.945],
  ["Nc1cc(S(=O)(=O)O)cc2cc(S(=O)(=O)O)c(N=Nc3ccc(-c4ccc(N=Nc5c(S(=O)(=O)O)cc6cc(S(=O)(=O)O)cc(N)c6c5O)cc4)cc3)c(O)c12", "TD50", "mg/kg/day", 1.18]
]}

====

# System: rodent lifetime carcinogenesis bioassay, tumor incidence TD50
# methodNotes: carcinogenic potency in animals, long-term in vivo studies, CPDB compilation (AID 1745844)
# conditionInfo: mouse; strain Swiss albino; females; by gavage; site: lung; lesion: several types; types named in the paper; dosed 52 weeks; study length 141 weeks

{"columns": ["structure", "TD50"],
 "data": [
  ["N#[N+]c1ccccc1", "16.5 mg/kg/day"]
]}

====

# Test system: rodent lifetime carcinogenesis bioassay, tumor incidence TD50
# methodNotes: carcinogenic potency in animals, long-term in vivo studies, CPDB compilation (AID 1745844)
# conditionInfo: rat; strain F344/DuCrj; females; in drinking water; site: esophagus; lesion: squamous-cell carcinoma; dosed 50 weeks; study length 50 weeks
recordedMetric: TD50

{"columns": ["structure", "observedMeasurement"],
 "data": [
  ["CCCCN(N=O)C(N)=O", "8.05 mg/kg/day"]
]}

====

# Test system: rodent lifetime carcinogenesis bioassay, tumor incidence TD50
# methodNotes: carcinogenic potency in animals, long-term in vivo studies, CPDB compilation (AID 1745844)
# conditionInfo: rat; strain Sprague-Dawley; both sexes; in feed; site: any site (literature study); lesion: one or several types; types not named; dosed 104 weeks; study length 104 weeks
Activity calls are given as the source filed them. No rule for the calls is given here.
recordedMetric: TD50

{"columns": ["compound", "observedMeasurement"],
 "data": [
  ["COc1cc(NC(=O)C(N=Nc2ccc(-c3ccc(N=NC(C(C)=O)C(=O)Nc4cc(OC)c(Cl)cc4OC)c(Cl)c3)cc2Cl)C(C)=O)c(OC)cc1Cl (configuration not stated)", "3560 mg/kg/day (inactive)"],
  ["CC(=O)C(N=Nc1ccc(Cl)cc1Cl)C(=O)Nc1ccc(-c2ccc(NC(=O)C(N=Nc3ccc(Cl)cc3Cl)C(C)=O)c(C)c2)cc1C (configuration not stated)", "13700 mg/kg/day (inactive)"]
]}
